Reported MIC values follow for various molecules
# Tested on: Pro. vulgaris GN76**
# Protocol Notes: Antibacterial activity (MIC), agar dilution
# Format: cell-based
# Condition Context: Proteus vulgaris, 20 h; Pro. vulgaris GN76, cephalospolinase-producing; 10^6 cells per ml; read-out: MIC
Readout: MIC

Molecule	Assay Value
Cc1ccc(-c2cc(=O)c(C(=O)O)cn2-c2ccc(F)cc2)s1	1.56 µg/mL
Nc1ccc(-c2cc(=O)c(C(=O)O)cn2-c2ccc(O)cc2)cc1	1.56 µg/mL
Cc1ccc(-c2cc(=O)c(C(=O)O)cn2-c2ccc(O)cc2)s1	0.2 µg/mL
CNc1ccc(-c2cc(=O)c(C(=O)O)cn2-c2ccc(O)cc2)cc1C	0.78 µg/mL
O=C(O)c1cn(-c2ccc(O)cc2F)c(-c2cc3ccccc3s2)cc1=O	0.2 µg/mL
Nc1ccc(-c2cc(=O)c(C(=O)O)cn2-c2ccc(F)cc2)cc1	0.78 µg/mL
CC(=O)Oc1ccc(-n2cc(C(=O)O)c(=O)cc2-c2ccc(N(C)C)cc2)cc1	0.39 µg/mL
Cc1nc2cc(-c3cc(=O)c(C(=O)O)cn3-c3ccc(O)cc3)ccc2s1	1.56 µg/mL
O=C(O)c1cn(-c2ccc(O)cc2)c(-c2ccc(-c3ccccc3)s2)cc1=O	0.39 µg/mL
O=C(O)c1cn(-c2ccc(O)cc2)c(-c2ccc3occc3c2)cc1=O	0.78 µg/mL
CN1CCc2cc(-c3cc(=O)c(C(=O)O)cn3-c3ccc(O)cc3)ccc21	0.39 µg/mL
O=C(O)c1cn(-c2ccc(O)cc2F)c(-c2ccc(N3CCOCC3)cc2)cc1=O	6.25 µg/mL
CN(C)c1ccc(-c2cc(=O)c(C(=O)O)cn2-c2ccc(O)cc2F)cc1	0.2 µg/mL
O=C(O)c1cn(-c2ccc(O)cc2)c(-c2ccc(-n3cccc3)cc2)cc1=O	0.78 µg/mL
O=C(O)c1cn(-c2ccc(O)cc2)c(-c2ccc3sccc3c2)cc1=O	0.2 µg/mL
Cc1cc(O)ccc1-n1cc(C(=O)O)c(=O)cc1C1CC=CCC1 (stereo not drawn)	0.39 µg/mL
O=C(O)c1cn(-c2ccc(F)cc2)c(C=Cc2cccnc2)cc1=O [drawing 205]	1.56 µg/mL
CC(=O)Oc1ccc(-n2cc(C(=O)O)c(=O)cc2-c2ccc(N(C)C)cc2)c(C)c1	0.39 µg/mL
CNc1ccc(-c2cc(=O)c(C(=O)O)cn2-c2ccc(F)cc2)cc1C	3.13 µg/mL
O=C(O)c1cn(-c2ccc(O)cc2)c(-c2ccc(N3CCCC3)cc2)cc1=O	0.78 µg/mL
O=C(O)c1cn(-c2ccc(O)cc2F)c(C2CC=CCC2)cc1=O (stereo not drawn)	0.78 µg/mL

* * *

# Test system: Kl. pneumoniae Y-4*
# Protocol Notes: Antibacterial activity (MIC), agar dilution
# Format: cell-based
# Condition Context: Klebsiella pneumoniae, 20 h, Kl. pneumoniae Y-4, penicillinase-producing; 10^6 cells per ml; read-out: MIC
Readout: log10(MIC) (log10 of the value in mg/L)

Molecule	log10(MIC)
CN(C)c1ccc(-c2cc(=O)c(C(=O)O)cn2-c2ccc(O)cc2)cc1 [drawing 206]	0.19
O=C(O)c1cn(-c2ccc(F)cc2)c(-c2ccc(Cl)s2)cc1=O	1.40
Cc1nc2cc(-c3cc(=O)c(C(=O)O)cn3-c3ccc(O)cc3)ccc2s1	0.50
CN(C)c1ccc(-c2cc(=O)c(C(=O)O)cn2-c2cccc3c(O)cccc23)cc1	0.80
CN(C)c1ccc(-c2cc(=O)c(C(=O)O)cn2-c2cccc(O)c2)cc1	0.50
Nc1ccc(-c2cc(=O)c(C(=O)O)cn2-c2ccc(O)cc2)cc1	1.10
O=C(O)c1cn(-c2ccc(O)cc2)c(-c2ccc(-c3ccccc3)s2)cc1=O	0.19
O=C(O)c1cn(-c2ccc(F)cc2)c(C=Cc2ccncc2)cc1=O	0.80
O=C(O)c1cn(-c2ccc(O)cc2)c(-c2ccc(-c3ccc(Cl)s3)cc2)cc1=O	0.19
CN1CCOc2cc(-c3cc(=O)c(C(=O)O)cn3-c3ccc(O)cc3F)ccc21	0.50
